experimental.target: Bmx(h) (Homo sapiens, UniProt P51813)
Construct: purchased Upstate Biotechnology (Dundee, UK), KinaseProfiler service
Sequence (P51813 whole entry): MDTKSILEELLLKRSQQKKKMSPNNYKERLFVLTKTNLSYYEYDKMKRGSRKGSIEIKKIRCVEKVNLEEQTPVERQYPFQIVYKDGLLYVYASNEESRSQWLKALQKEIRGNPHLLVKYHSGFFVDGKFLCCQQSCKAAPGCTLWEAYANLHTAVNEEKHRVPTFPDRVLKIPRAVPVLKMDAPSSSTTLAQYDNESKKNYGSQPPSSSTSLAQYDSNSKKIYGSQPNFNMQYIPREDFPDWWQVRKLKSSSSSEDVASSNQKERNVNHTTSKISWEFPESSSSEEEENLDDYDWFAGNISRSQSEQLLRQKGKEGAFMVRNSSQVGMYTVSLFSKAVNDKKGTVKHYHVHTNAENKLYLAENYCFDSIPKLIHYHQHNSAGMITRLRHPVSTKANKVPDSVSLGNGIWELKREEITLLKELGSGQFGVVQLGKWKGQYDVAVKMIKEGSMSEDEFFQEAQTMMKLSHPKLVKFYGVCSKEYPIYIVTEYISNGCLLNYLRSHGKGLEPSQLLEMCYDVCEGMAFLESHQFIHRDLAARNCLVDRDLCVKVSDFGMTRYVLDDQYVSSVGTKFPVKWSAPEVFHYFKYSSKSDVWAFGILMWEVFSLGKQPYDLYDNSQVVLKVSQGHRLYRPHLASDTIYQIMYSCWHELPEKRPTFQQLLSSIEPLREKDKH
method: Upstate KinaseProfiler enzyme assay, Bmx
Format: biochemical
test.settings: 500 nM compound; read-out: Percent inhibition at 500 nM Bmx(h)
Description: Further enzyme assays were conducted at Upstate Biotechnology (Dundee, UK) in the KinaseProfiler™ Assay system. The general protocol is as follows. All kinases are pre-diluted to a 10× working concentration prior to addition into the assay. The composition of the dilution buffer for the kinases is 20 mM MOPS pH 7.0, 1 mM EDTA, 0.1% β-mercaptoethanol, 0.01% Brij-35, 5% glycerol, 1 mg/ml BSA. All substrates are dissolved and diluted to working stocks in de-ionised water.
Listing of entries alongside the reported inhibition at 0.5 µM.
A number alone suffices; assume %.

Would you please look over these solved cases?
In [3]: df
Out[3]:
                               entry_smiles  recorded_number
0  C=CC(=O)Nc1ccc(Sc2ccnc(Nc3cccc(C(=O)OC)c3)n2)cc1              100
1  C=CC(=O)Nc1ccc(Sc2ccnc(Nc3ccc(N4CCN(C)CC4)cc3)n2)cc1               90
2  C=CC(=O)Nc1ccc(Sc2ccnc(Nc3cccc(C#N)c3)n2)cc1              100
3  C=CC(=O)Nc1ccc(Sc2ccnc(Nc3cc(OC)c(OC)c(OC)c3)n2)cc1               36
4  C=CC(=O)Nc1ccc(Sc2ccnc(Nc3ccc(Cl)cc3)n2)cc1              100

In plain terms, `CC#CC(=O)Nc1ccc(Sc2nc(Nc3ccc(N4CCOCC4)cc3)ncc2C)cc1` has a documented inhibition at 0.5 µM of 100

In plain terms, `C=CC(=O)Nc1ccc(Sc2nc(Nc3cccc(N4CCOCC4)c3)ncc2C)cc1` has a documented inhibition at 0.5 µM of 92

In plain terms, `C=CC(=O)Nc1cc(C)c(Sc2nc(Nc3ccc(N4CCOCC4)cc3)ncc2C)c(C)c1` has a documented inhibition at 0.5 µM of 87

In plain terms, `C=CC(=O)Nc1ccc(Sc2ccnc(Nc3ccc(C(=O)OC)cc3)n2)cc1` has a documented inhibition at 0.5 µM of 48

In plain terms, `C=CC(=O)Nc1ccc(Sc2ccnc(Nc3ccc(S(N)(=O)=O)c(OC)c3)n2)cc1` has a documented inhibition at 0.5 µM of 91

* * *

Listing of entries alongside the reported pIC50.
Tested on: BaF3 wild-type cells
method: Cellular screening, BaF3 wild-type cells, Alamar Blue
Type: cell-based
test.settings: Mus musculus, 40 hr, read-out: BAF3wt IC50_nM
pIC50: −log10 of the molar value.

Would you please look over these solved cases?
>>> print(df.to_string())
                                   compound  property_label  result
0  Cc1cnc(Nc2ccc(N3CCOCC3)cc2)nc1Sc1c(C)cc(N)cc1C [Compound 165]           pIC50  < 4.70
1  CC#CC(=O)Nc1ccc(Sc2ccnc(Nc3cccc(N4CCOCC4)c3)n2)cc1 [Compound 233]           pIC50  > 5.30
2  C=CC(=O)Nc1ccc(Sc2nc(Nc3ccc(N4CCS(=O)(=O)CC4)cc3)ncc2C)cc1 [Compound 298]           pIC50  > 4.70

In plain terms, C=CC(=O)Nc1ccc(Sc2nc(Nc3cccc(N4CCOCC4)c3)ncc2C)cc1 [Compound 237] has a documented pIC50 of > 6.00

In plain terms, C=CC(=O)Nc1ccc(Sc2ccnc(Nc3ccc(S(=O)(=O)N4CCN(C)CC4)cc3)n2)cc1 [Compound 370] has a documented pIC50 of > 4.70

In plain terms, Cc1cnc(Nc2ccc(N3CCOCC3)cc2)nc1Sc1ccc(N2C(=O)C=CC2=O)cc1 [Compound 390] has a documented pIC50 of > 5.30

In plain terms, C=CC(=O)NCc1ccc(Sc2ccnc(Nc3ccc(N4CCOCC4)cc3)n2)cc1 [Compound 111] has a documented pIC50 of > 4.70

In plain terms, C=CC(=O)Nc1ccc(Sc2ccnc(Nc3cccc(S(=O)(=O)N4CCN(C)CC4)c3)n2)cc1 [Compound 365] has a documented pIC50 of > 4.70
